assay: Stability test, percent of activity remaining on storage; format: physicochemical; conditions: 50° C., 1.5 months, closed flask, nonsterile air; read-out: % of activity after storage

>  <compound>
CO/N=C(\C(=O)NC1C(=O)N2C(C(=O)O)=C(COC(C)=O)CSC12)c1csc(N)n1 (stereo not shown)

>  <remaining at 1080 h (%)>
92.5

$$$$

====

experiment: Stability test, percent of activity remaining on storage; format: physicochemical; details: 80° C., 160 hours, closed flask, nonsterile air; read-out: % of activity after storage

>  <compound>
CO/N=C(\C(=O)NC1C(=O)N2C(C(=O)O)=C(COC(C)=O)CSC12)c1csc(N)n1 (stereo not shown)

>  <remaining at 160 h>
89.5%

$$$$
